Quick list: Kd per entry.
- experimental-system: T1, human CTLA-4-Fc (Chimerigen) (human, UniProt P16410 36-161; P01857 99-330 = IgG part, limits assumed)
- T1 construct: extracellular domain;domain: Fc portion; Bought protein; also called hCTLA-4-Fc; huCTLA-4-Ig
- T1 sequence (P16410 other isoform, or with tags, fused parts or gaps mutant limits assumed): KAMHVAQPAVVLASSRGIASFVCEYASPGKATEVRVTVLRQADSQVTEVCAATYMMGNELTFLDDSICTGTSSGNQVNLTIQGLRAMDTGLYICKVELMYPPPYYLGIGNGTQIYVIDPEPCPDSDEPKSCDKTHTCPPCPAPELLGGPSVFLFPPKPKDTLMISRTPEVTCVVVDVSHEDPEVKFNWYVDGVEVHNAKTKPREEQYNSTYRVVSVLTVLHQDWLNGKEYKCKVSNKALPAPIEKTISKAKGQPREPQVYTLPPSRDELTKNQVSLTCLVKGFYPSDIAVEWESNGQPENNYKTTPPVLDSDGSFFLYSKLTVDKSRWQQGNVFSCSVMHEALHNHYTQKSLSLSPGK
- experiment: SPR, Fc fusion captured via anti-human IgG Fc
Dear colleague, please return just the value in nM, with no unit written.

Recorded Kd, per entry:
hNGAL mutein S106.1-N15 (designed binder) QDSTSDLIPAPPLSKVPLQQNFQDNQFHGKWYVLGLAGNRILRDDQHPMNMYATIYELKEDKSYNVTSVIFPHKKCEYTIATFVPGSQPGEFTLGNIKSYGDKTSYLVRVVSTNYNQHAMVFFKLAEDNAEFFAITIYGRTKELASELKENFIRFSKSLGLPENHIVFPVPIDQCIDGSAWSHPQF	43
hNGAL mutein S109.4-A15 (designed binder) QDSTSDLIPAPPLSKVPLQQNFQDNQFHGKWYVVGLAGNRILRDDQHPMDMYATIYELKEDKSYNVTSVIFPHKKCEYTIATFVPGSQPGEFTLGNIKSYGDKTSYLVRVVSTNYNQHATVFFKLAEDNAEFFAITIYGRTKELASELKENFIRFSKSLGLPENHIVFPVPIDQCIDGSAWSHPQF	26

Below: the item to evaluate.
Data request: Please look up its Kd: hNGAL mutein S107.4-C16 (designed binder) QDSTSDLIPAPPLSKVPLQQNFQDNQFHGKWYVVGLAGNRILRDDQHPMNMYATIYELKEDKSYNVTSVIFPHKKCEYTIATFVPGSQPGEFTLGNIKSYGDKTSYLVRVVSTNYNQHAMVFFELVEDNAGFFAITIYGRTKELASELKENFIRFSKSLGLPENHIVFPVPIDQCIDGSAWSHPQF
Data returned: 28
